TEST_SUMMARY: Tmax in Sprague-Dawley rat brain at 2 mg/kg, po administered as single dose by LC-MS/MS analysis
Type: ADME, organism-based
ENDPOINT_NAME: Tmax (h)
Give just the numeric value; h need not be written.

Q) Would you kindly share the measured Tmax for O=C(N[C@H]1CC[C@H](CCN2CCN(c3nsc4ccccc34)CC2)CC1)c1ccco1 ?
A) 2

* * *

TEST_SUMMARY: Ratio of AUC (0 to t) in Sprague-Dawley rat brain to plasma at 2 mg/kg, po
Format: ADME, organism-based
CONDITION_DESCRIPTION: brain and plasma, read-out: Ratio AUC
ENDPOINT_NAME: Kp
Lab note: write the figure by itself, no unit.

Q) Would you kindly share the measured Kp for O=C(N[C@H]1CC[C@H](CCN2CCN(c3nsc4ccccc34)CC2)CC1)c1ccco1 ?
A) 16.1

* * *

MEASURED_ON: 5-hydroxytryptamine receptor 1A (Homo sapiens, UniProt P08908)
TEST_SUMMARY: Agonist activity at 5-HT1A receptor (unknown origin) expressed in CHOK1 cells co-expressing G-alpha 15 by Fluo-4 dye based FLIPR assay
ENDPOINT_NAME: EC50

Q) API: value(readout= EC50, system= 5-hydroxytryptamine receptor 1A (Homo sapiens, UniProt P08908), query= O=C(N[C@H]1CC[C@H](CCN2CCN(c3nsc4ccccc34)CC2)CC1)c1ccco1 )
A) > 10 µM

* * *

TEST_SUMMARY: Half life in Sprague-Dawley rat brain at 2 mg/kg, po administered as single dose by LC-MS/MS analysis
Format: ADME, organism-based
ENDPOINT_NAME: half-life

Q) Would you kindly share the measured half-life for O=C(N[C@H]1CC[C@H](CCN2CCN(c3nsc4ccccc34)CC2)CC1)c1ccco1 ?
A) 16.3 h

* * *

MEASURED_ON: 5-hydroxytryptamine receptor 2A (Homo sapiens, UniProt P28223)
Sequence (P28223 whole entry): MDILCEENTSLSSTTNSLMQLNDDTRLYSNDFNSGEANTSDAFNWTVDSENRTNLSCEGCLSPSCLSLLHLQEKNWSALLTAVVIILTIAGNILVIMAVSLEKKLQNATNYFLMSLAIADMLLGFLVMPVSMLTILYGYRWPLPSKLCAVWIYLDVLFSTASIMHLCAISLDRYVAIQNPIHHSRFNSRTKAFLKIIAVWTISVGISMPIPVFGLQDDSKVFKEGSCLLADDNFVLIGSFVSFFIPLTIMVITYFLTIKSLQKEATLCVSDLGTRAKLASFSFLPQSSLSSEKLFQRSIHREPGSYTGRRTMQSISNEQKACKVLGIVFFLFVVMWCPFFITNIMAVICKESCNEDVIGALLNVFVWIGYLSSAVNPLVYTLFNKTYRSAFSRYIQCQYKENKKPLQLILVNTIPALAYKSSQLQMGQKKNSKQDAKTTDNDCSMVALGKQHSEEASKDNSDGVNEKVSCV
TEST_SUMMARY: Displacement of [3H]ketanserin from recombinant human 5-HT2A receptor expressed in HEK293 cell membranes after 60 mins by scintillation counting method
Measured pKi values are reported for all entries that follow.
Note: pKi values are expressed as the negative base-10 logarithm of concentration in M.

// worked examples, pKi included
Q) Would you kindly share the measured pKi for CCN(C)C(=O)N[C@H]1CC[C@H](CCN2CCN(c3nsc4ccccc34)CC2)CC1 ?
A) 9.30

Q) Would you kindly share the measured pKi for Cc1ccc(S(=O)(=O)N[C@H]2CC[C@H](CCN3CCN(c4nsc5ccccc45)CC3)CC2)cc1 ?
A) 9.59

Q) Would you kindly share the measured pKi for O=C(Nc1cccnc1)N[C@H]1CC[C@H](CCN2CCN(c3nsc4ccccc34)CC2)CC1 ?
A) 9.85

Next up:
Q) Would you kindly share the measured pKi for CCCS(=O)(=O)N[C@H]1CC[C@H](CCN2CCN(c3nsc4ccccc34)CC2)CC1 ?
A) 9.47

* * *

TEST_SUMMARY: Oral bioavailability in Sprague-Dawley rat brain at 2 mg/kg administered as single dose by LC-MS/MS analysis
Assay type: ADME, organism-based
ENDPOINT_NAME: bioavailability (%)
Give just the numeric value; % need not be written.

Q) Would you kindly share the measured bioavailability for O=C(N[C@H]1CC[C@H](CCN2CCN(c3nsc4ccccc34)CC2)CC1)c1ccco1 ?
A) 20.7

* * *

MEASURED_ON: 5-hydroxytryptamine receptor 1A (Homo sapiens)
Sequence (P08908 whole entry): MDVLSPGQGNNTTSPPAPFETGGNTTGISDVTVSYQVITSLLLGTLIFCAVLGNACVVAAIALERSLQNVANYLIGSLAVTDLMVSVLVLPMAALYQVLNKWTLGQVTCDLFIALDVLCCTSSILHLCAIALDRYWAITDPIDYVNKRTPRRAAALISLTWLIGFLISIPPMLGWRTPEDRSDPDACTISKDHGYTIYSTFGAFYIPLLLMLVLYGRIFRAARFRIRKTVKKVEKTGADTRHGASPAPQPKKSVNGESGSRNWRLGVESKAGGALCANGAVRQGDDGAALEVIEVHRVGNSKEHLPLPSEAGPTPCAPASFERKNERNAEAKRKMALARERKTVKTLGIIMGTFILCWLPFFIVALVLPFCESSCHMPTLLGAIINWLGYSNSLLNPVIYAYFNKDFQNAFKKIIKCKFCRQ
TEST_SUMMARY: Displacement of [3H]8-OH-DPAT from recombinant human 5-HT1A receptor expressed in HEK293 cell membranes after 60 mins by scintillation counting method
ENDPOINT_NAME: pKi
Note: pKi values are expressed as the negative base-10 logarithm of concentration in M.

// worked examples, pKi included
Q) Would you kindly share the measured pKi for O=C(c1ccco1)N1CCC(CCN2CCN(c3nsc4ccccc34)CC2)CC1 ?
A) 9.14

Q) Would you kindly share the measured pKi for CCN(C)C(=O)N[C@H]1CC[C@H](CCN2CCN(c3nsc4ccccc34)CC2)CC1 ?
A) 8.85

Next:
Q) Would you kindly share the measured pKi for CCC(=O)N[C@H]1CC[C@H](CCN2CCN(c3nsc4ccccc34)CC2)CC1 ?
A) 8.82
